# MEASURED TARGET: WEE1 kinase enzyme (Homo sapiens (Human))
MEASUREMENT TYPE: pIC50
Numbers only, as −log10 of the molar value.

O=C1c2cnc(Nc3ccc(N4CCNCC4)cc3)nc2OCN1c1c(F)cccc1F [Example 1.39]	6.27
O=C1c2cnc(Nc3ccc4c(c3)CCCN4)nc2OCN1c1c(Cl)cccc1Cl [Example 1.224]	6.63
CC1CNCCN1c1ccc(Nc2ncc3c(n2)SCN(c2c(Cl)cccc2Cl)C3=O)cc1Cl (stereo not shown) [Example 1.243]	6.02

# input Which measured pIC50 belongs to CN1CCc2ccc(Nc3ncc4c(n3)OCN(c3c(Cl)cccc3Cl)C4=O)cc2C1 [Example 1.35] , tested on WEE1 kinase enzyme (Homo sapiens (Human))?
# output 7.46

====

# MEASURED TARGET: WEE1 kinase enzyme (Homo sapiens (Human), UniProt P30291)
# Sequence (P30291 whole entry): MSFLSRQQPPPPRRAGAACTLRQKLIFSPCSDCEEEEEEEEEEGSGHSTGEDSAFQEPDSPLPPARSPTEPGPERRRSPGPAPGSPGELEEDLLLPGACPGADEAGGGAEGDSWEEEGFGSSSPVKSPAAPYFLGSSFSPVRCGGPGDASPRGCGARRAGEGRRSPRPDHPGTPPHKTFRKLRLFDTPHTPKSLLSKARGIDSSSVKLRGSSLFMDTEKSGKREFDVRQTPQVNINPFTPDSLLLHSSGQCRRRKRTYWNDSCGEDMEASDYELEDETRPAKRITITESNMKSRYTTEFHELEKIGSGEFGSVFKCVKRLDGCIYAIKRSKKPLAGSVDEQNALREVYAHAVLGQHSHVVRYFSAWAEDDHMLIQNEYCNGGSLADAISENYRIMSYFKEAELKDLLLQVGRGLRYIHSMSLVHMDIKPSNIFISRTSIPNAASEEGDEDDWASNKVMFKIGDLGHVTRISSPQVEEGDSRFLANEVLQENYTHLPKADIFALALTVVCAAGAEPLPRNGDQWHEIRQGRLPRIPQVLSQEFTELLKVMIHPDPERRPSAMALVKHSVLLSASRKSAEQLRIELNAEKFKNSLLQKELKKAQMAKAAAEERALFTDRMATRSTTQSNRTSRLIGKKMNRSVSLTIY
pIC50: −log10 of the molar value. Where a name gives a salt, the structure may show the parent alone.
Binary call on pIC50: 1 from 7 upward, 0 beneath that.

CN1CCC(c2ccc(Nc3ncc4c(n3)OCN(c3c(Cl)cccc3Cl)C4=O)cc2)CC1	1
COc1cc(Nc2ncc3c(n2)SCN(c2c(Cl)cccc2Cl)C3=O)ccc1N1CCC(N(C)C)CC1	0

# input Is it the case that CNCCNc1ccc(Nc2ncc3c(n2)OCN(c2c(Cl)cccc2Cl)C3=O)cc1 [Example 1.54, Hydrochloride] has pIC50 reaching or exceeding 7?
# output 0

# input Is it the case that C[C@@H]1CN(c2ccc(Nc3ncc4c(n3)OCN(c3c(Cl)cccc3Cl)C4=O)cc2F)CCN1 has pIC50 reaching or exceeding 7?
# output 1

====

Where a name gives a salt, the structure may show the parent alone.
For WEE1 kinase enzyme (Homo sapiens (Human), UniProt P30291), measured pIC50 is reported for the entries below.
Answers are plain numbers, as −log10 of the molar value.

Solved cases (2 shown):
CN1CCN(c2ccc(Nc3ncc4c(n3)OCN(c3c(Cl)cncc3Cl)C4=O)cc2)CC1 [Example 1.43]	6.32
O=C1c2cnc(Nc3ccc(N4CCNCC4)cc3)nc2OCN1c1c(F)cccc1Cl [Example 1.27]	7.28

// input: 7 compounds below; output: pIC50 for each
1. CC1(C)CNCc2cc(Nc3ncc4c(n3)OCN(c3c(F)cccc3Cl)C4=O)ccc21 [Example 1.28]
2. O=C1c2cnc(Nc3ccc4c(c3)CCNC4)nc2OCN1c1c(Cl)cccc1Cl [Example 1.44]
3. CCS(=O)(=O)N1CCN(c2ccc(Nc3ncc4c(n3)OCN(c3c(Cl)cccc3Cl)C4=O)cc2)CC1 [Example 1.15]
4. O=C1c2cnc(Nc3ccc(C4CCNCC4)cc3)nc2OCN1c1c(Cl)cccc1Cl [Example 1.12]
5. Cc1cccc(Cl)c1N1COc2nc(Nc3ccc(N4CCNCC4)cc3)ncc2C1=O [Example 1.30]
6. C[C@H]1CNCCN1c1ccc(Nc2ncc3c(n2)OCN(c2c(Cl)cccc2Cl)C3=O)cc1 [Example 1.172]
7. CN(C)C1CCN(c2ccc(Nc3ncc4c(n3)SCN(c3c(F)cccc3Cl)C4=O)cc2Cl)CC1 [Example 1.245]

# output
1: 7.46; 2: 7.64; 3: 5.81; 4: 7.13; 5: 6.49; 6: 7.18; 7: 6.53

// input: 3 compounds below; output: pIC50 for each
1. O=C1c2cnc(Nc3ccc(N4CCNCC4)nc3)nc2OCN1c1c(Cl)cccc1Cl [Example 1.36]
2. CNCCOc1ccc(Nc2ncc3c(n2)OCN(c2c(Cl)cccc2Cl)C3=O)cc1 [Example 1.48]
3. CNCC(=O)N1CCN(c2ccc(Nc3ncc4c(n3)OCN(c3c(Cl)cccc3Cl)C4=O)cc2)CC1 [Example 1.57, hydrochloride]

# output
[6.98, 6.99, 7.00]

====

Task for the reader: assign each of the following molecules its reported IC50.
# Test system: A427 cells
# ASSAY PROCEDURE: Cell viability in combination with cisplatin in A427 cells (resazurin)
# Format: cell-based
# ASSAY CONTEXT: Homo sapiens, A-427; 24 hr 2.5 μM cisplatin, then compound alone 72 hr; read-out: Cell viability IC50 in A427 cells with 2.5 μM cisplatin: 24 hr cisplatin then compound
# Method: The activity of test compounds in combination with cisplatin in A427 cells was determined. Cells were seeded in a 96 well plate at 2000 cells/well. The next day, cells were treated with 2.5 μM cisplatin or vehicle (1×PBS) and incubated in culture conditions (37° C., 5% CO2) for 24 hr. […] The assay was terminated upon addition of resazurin, incubation for 4 hr in culture conditions and measurement of fluorescence at excitation and emission wavelengths of 535 and 590 nm, respectively.
Give bare numbers, in nM.

N#Cc1cc(Nc2ncc3c(n2)OCN(c2c(Cl)cccc2Cl)C3=O)ccc1N1CCNCC1	530
O=C1c2cnc(Nc3ccc(N4CCNCC4)c(CO)c3)nc2OCN1c1c(Cl)cccc1Cl	180
O=C1c2cnc(Nc3ccc4c(c3)CNCC4)nc2OCN1c1c(Cl)cccc1Cl	120

Then there is this molecule:
# input # get_value(readout='IC50', item= CC1(C)CNCc2cc(Nc3ncc4c(n3)OCN(c3c(Cl)cccc3Cl)C4=O)ccc21 )
# output 360

====

For WEE1 kinase enzyme (Homo sapiens (Human), UniProt P30291), measured pIC50 is reported for the entries below.
Numbers only, as −log10 of the molar value.

O=C1c2cnc(Nc3ccc(N4CCNCC4CO)cc3)nc2OCN1c1c(Cl)cccc1Cl (stereo not shown)	6.84
O=C1c2cnc(Nc3ccc4[nH]ccc4c3)nc2OCN1c1c(Cl)cccc1Cl	7.18
Cc1cc(Nc2ncc3c(n2)OCN(c2c(Cl)cccc2Cl)C3=O)cc(C)c1N1CCNCC1	6.98

Then there is this molecule:
# input # get_value(readout='pIC50', item= CC1Oc2nc(Nc3ccc(N4CCNCC4)cc3)ncc2C(=O)N1c1c(Cl)cccc1Cl (stereo not shown) )
# output 6.81
